Assay: qHTS for Antimalaria activity screened against the NCATS CANVASS Library (AID 1347380); further: nearly all actives have a fitted effect of over 40% in size
Settings: P. falciparum Dd2 growth, SYBR Green fluorescence, 72 h; series mostly up to 28.7 µM
Results filed as inconclusive are left out. Activity calls are given as the source filed them. The call rests on the fitted dose curve; in most records, active means well fitted cell-killing curve with a large enough effect; inconclusive means small, poorly fitted or top-dose-only effect, or effect the other way; inactive means no such curve, though single readings can be large or run the other way.
// classify into active, inactive

Known results for molecules:
INSERT INTO assay_data (molecular_string, assigned_label) VALUES
  ('COc1cc(/C=C/C(=O)OC[C@@H](Cc2ccc(O)c(OC)c2)[C@@H](COC(=O)/C=C/c2ccc(O)c(OC)c2)Cc2ccc(O)c(OC)c2)ccc1O', 'active'),
  ('CO/C=C/C(=O)c1cc2cnc3c(N)cc(=NC(=O)C(C)C)c([nH]1)c23', 'inactive'),
  ('CCC(=O)CCCCC[C@@H]1NC(=O)[C@H]2CCCCN2C(=O)[C@H](C(C)C)NC(=O)[C@H](Cc2cn(OC)c3ccccc23)NC1=O', 'active'),
  ('O=Cc1ccc2n1C[C@]1(C[C@H](O)[C@@H](CO)O1)OC2', 'inactive');

Hello, I am checking results. What call was entered for C/C=C(/C)c1cc(O)c(C)c2c1Oc1cc(O)cc(C)c1C(=O)O2 ?
inactive

Hello, I am checking results. What call was entered for CN1CC[C@]23c4ccccc4N[C@H]1[C@]21CCN(C)[C@H]3Nc2ccccc21 ?
inactive

Hello, I am checking results. What call was entered for C/C1=C/[C@@H](C)[C@H](O)[C@@H](O)/C=C/CC/C=C/C(=O)O[C@@H]1[C@H](C)C(=O)/C=C/CC1CC(=O)NC(=O)C1 ?
inactive

Hello, I am checking results. What call was entered for C/C=C/[C@H]1[C@H]2C(=O)c3c(O)c(C)c(O)c(C)c3[C@]1(C(=O)O)C(=O)C=C2C ?
inactive

----------
Biological target: Phospholipid hydroperoxide glutathione peroxidase GPX4 (Homo sapiens)
Assay: Primary qHTS Assay for Inhibitors of Recombinant Selenoprotein Glutathione Peroxidase 4 (GPX4) (AID 1845192); further: nearly all actives have a fitted effect of over 65% in size
Settings: recombinant GPX4, GR-coupled NADPH fluorescence, 15 min; series mostly up to 50 µM
Results filed as inconclusive are left out. Calls of active or inactive are those of the source. Calls come from the whole dose curve; as a rule, active = well fitted inhibition curve with a large enough effect; inconclusive = small, poorly fitted or top-dose-only effect; inactive = flat fitted curve, though single readings scatter.
// classify into 1 (yes) (active), 0 (no) (inactive)

Known results for compounds:
INSERT INTO assay_data (compound, target_under_test, assigned_label) VALUES
  ('CS[C@H]1SC[C@@H]2C(=O)N(C)[C@H](C(C)C)C(=O)OC[C@H](NC(=O)c3cnc4ccccc4n3)C(=O)N[C@H](C)C(=O)N(C)[C@H]1C(=O)N(C)[C@H](C(C)C)C(=O)OC[C@H](NC(=O)c1cnc3ccccc3n1)C(=O)N[C@H](C)C(=O)N2C', 'Phospholipid hydroperoxide glutathione peroxidase GPX4 (Homo sapiens)', '0 (no)'),
  ('CONC(=O)Nc1ccc(-c2sc3c(c2CN(C)Cc2ccccc2)c(=O)n(-c2ccccc2)c(=O)n3Cc2c(F)cccc2F)cc1', 'Phospholipid hydroperoxide glutathione peroxidase GPX4 (Homo sapiens)', '0 (no)'),
  ('Nc1nccc2c1ncn2[C@@H]1C=C(CO)[C@@H](O)[C@H]1O', 'Phospholipid hydroperoxide glutathione peroxidase GPX4 (Homo sapiens)', '0 (no)');

Hello, I am checking results. What call was entered for CNCCCOc1cc(F)c(-c2c(Cl)nc3ncnn3c2N[C@@H](C)C(F)(F)F)c(F)c1 ?
0 (no)
